Listing: self-cleavage of selected variants
B1: Hairpin Ribozyme (parent)
chain: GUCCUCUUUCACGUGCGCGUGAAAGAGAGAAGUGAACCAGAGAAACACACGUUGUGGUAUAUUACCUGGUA

# Variants of: B1
# Assay Text: self-cleavage, relative activity (ratio to wild type); higher = more cleavage; co-transcriptional

Example entries begin here.
Variant Identifier	Meas Value
A22G U63C	0.245
A36U U52C	0.765
A22U G68U	0.188
G15A A23G	0.862
A23U U52G	0.753

Query :: Item under review: G19A U62G . Reported self-cleavage?
Result :: 0.103
